Provenance of the data: patent US7186831B2

# METHOD_SUMMARY: log P by HPLC
# Assay type: physicochemical
# CONDITION_NOTES: HPLC, gradient method, acetonitrile/0.1% aqueous phosphoric acid; EEC directive 79/831 Annex V. A8
PROPERTY_LABEL: logP

{"columns": ["COMPOUND", "logP"],
 "data": [
  ["CCOC(=O)CN(c1c(-c2ccc(F)cc2F)c(Cl)nc2nc(C3CC3)nn12)C1CC1", 3.84],
  ["N#CCNc1c(-c2c(F)cc(F)cc2F)c(Cl)nc2nc(C(F)(F)F)nn12", 2.91],
  ["C#CCN(C)c1c(-c2c(F)cc(F)cc2F)c(Cl)nc2nc(C)nn12", 2.77],
  ["CCN(CCOC)c1c(-c2c(F)cc(F)cc2F)c(Cl)nc2nc(C)nn12", 2.93],
  ["Cc1nc2nc(Cl)c(-c3ccc(Cl)cc3Cl)c(N3OC4CCC3C4)n2n1 (centres unmarked)", 3.41]
]}

A. CCCN(CC1CC1)c1c(-c2ccc(F)cc2F)c(Cl)nc2nc(C3CC3)nn12
B. COC(OC)C(C)Nc1c(-c2c(F)cc(F)cc2F)c(Cl)nc2nc(C)nn12 (centres unmarked)
Query: Consider entries A and B . Which has the numerically lower logP? Selection: enter the item's label.
Reply: B

A. Cc1nc2nc(Cl)c(-c3ccccc3Cl)c(NC(C)C(C)C)n2n1 (centres unmarked)
B. COCCNc1c(-c2c(F)cccc2Cl)c(Cl)nc2nc(C)nn12
Query: Consider A and B . Which of these has its logP at a higher number? Write down the label attached to your selection.
Reply: A
